Reference source: paper PMC12529666

binding signal values by entry
- system.name: AGO2 F182del (Homo sapiens, UniProt Q9UKV8 1-859, S387D;S824A;S828D;S831D;S834A;del182-182)
- Sequence (Q9UKV8 other isoform, or with tags, fused parts or gaps S387D;S824A;S828D;S831D;S834A;del182-182): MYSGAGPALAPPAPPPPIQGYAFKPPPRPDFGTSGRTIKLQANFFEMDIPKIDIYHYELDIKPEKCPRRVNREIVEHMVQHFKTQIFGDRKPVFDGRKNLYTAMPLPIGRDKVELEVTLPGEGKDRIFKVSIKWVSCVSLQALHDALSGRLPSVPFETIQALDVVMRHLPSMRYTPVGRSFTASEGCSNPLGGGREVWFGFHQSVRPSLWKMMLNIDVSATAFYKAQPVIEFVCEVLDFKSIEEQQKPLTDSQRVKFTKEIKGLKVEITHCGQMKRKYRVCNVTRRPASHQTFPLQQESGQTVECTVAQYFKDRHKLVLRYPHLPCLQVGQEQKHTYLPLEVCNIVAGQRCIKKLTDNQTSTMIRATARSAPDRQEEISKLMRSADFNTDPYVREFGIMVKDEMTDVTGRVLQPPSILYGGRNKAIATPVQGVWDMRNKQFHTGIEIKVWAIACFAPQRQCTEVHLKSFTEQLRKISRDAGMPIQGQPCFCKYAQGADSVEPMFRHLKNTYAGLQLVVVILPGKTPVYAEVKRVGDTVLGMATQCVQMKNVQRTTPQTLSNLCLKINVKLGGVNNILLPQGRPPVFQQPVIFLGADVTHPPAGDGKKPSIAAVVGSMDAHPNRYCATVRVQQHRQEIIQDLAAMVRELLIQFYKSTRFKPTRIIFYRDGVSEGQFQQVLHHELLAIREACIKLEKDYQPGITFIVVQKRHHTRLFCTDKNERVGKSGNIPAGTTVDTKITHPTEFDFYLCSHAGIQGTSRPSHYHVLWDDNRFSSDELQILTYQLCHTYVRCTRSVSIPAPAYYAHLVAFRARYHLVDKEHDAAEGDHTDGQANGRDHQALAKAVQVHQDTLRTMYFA
- protocol: RNA Bind-n-Seq (nitrocellulose filter binding and sequencing); miR-122 guide loaded in AGO2; 60 min incubation; 30 mM Tris pH 8.0, 100 mM potassium acetate, 2 mM magnesium acetate, 0.5 mM TCEP, 0.005% NP-40, 0.01 mg/ml yeast tRNA; 3 nM AGO2-miR-122, 100 nM RNA library; 60; high values mean tight binding
- test.settings: protein: recombinant; tags: His6 (N-terminal, pFastBac HTA)

Dear colleague, I am looking for the recorded binding signal of the following binder: ATGTTCTA (ssRNA, constant regions annealed to DNA blockers; guide miR-122 5' phosphate) RNA 1: GAGUUCUACAGUCCGACGAUCCCAACAUGUUCUACACCUGGAAUUCUCGGGUGCCAA RNA 2: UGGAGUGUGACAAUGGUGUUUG DNA 1: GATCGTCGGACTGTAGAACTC DNA 2: TTGGCACCCGAGAATTCCA 0.182 fold enrichment over input

Dear colleague, I am looking for the recorded binding signal of the following binder: GCGTTCCA (ssRNA, constant regions annealed to DNA blockers; guide miR-122 5' phosphate) RNA 1: GAGUUCUACAGUCCGACGAUCCCAACGCGUUCCACACCUGGAAUUCUCGGGUGCCAA RNA 2: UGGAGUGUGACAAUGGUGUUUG DNA 1: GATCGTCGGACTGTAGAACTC DNA 2: TTGGCACCCGAGAATTCCA 0.161 fold enrichment over input

Dear colleague, I am looking for the recorded binding signal of the following binder: ACATCCCG (ssRNA, constant regions annealed to DNA blockers; guide miR-122 5' phosphate) RNA 1: GAGUUCUACAGUCCGACGAUCCCAACACAUCCCGCACCUGGAAUUCUCGGGUGCCAA RNA 2: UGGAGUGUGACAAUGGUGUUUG DNA 1: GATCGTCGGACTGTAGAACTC DNA 2: TTGGCACCCGAGAATTCCA 0.144 fold enrichment over input

Dear colleague, I am looking for the recorded binding signal of the following binder: ATATTTCA (ssRNA, constant regions annealed to DNA blockers; guide miR-122 5' phosphate) RNA 1: GAGUUCUACAGUCCGACGAUCCCAACAUAUUUCACACCUGGAAUUCUCGGGUGCCAA RNA 2: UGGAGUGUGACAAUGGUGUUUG DNA 1: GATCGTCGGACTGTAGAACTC DNA 2: TTGGCACCCGAGAATTCCA 1.09 fold enrichment over input

Dear colleague, I am looking for the recorded binding signal of the following binder: GTATCCTA (ssRNA, constant regions annealed to DNA blockers; guide miR-122 5' phosphate) RNA 1: GAGUUCUACAGUCCGACGAUCCCAACGUAUCCUACACCUGGAAUUCUCGGGUGCCAA RNA 2: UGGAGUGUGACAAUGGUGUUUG DNA 1: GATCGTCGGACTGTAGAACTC DNA 2: TTGGCACCCGAGAATTCCA 0.121 fold enrichment over input

Dear colleague, I am looking for the recorded binding signal of the following binder: ACACCCTG (ssRNA, constant regions annealed to DNA blockers; guide miR-122 5' phosphate) RNA 1: GAGUUCUACAGUCCGACGAUCCCAACACACCCUGCACCUGGAAUUCUCGGGUGCCAA RNA 2: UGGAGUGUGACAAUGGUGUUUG DNA 1: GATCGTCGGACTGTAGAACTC DNA 2: TTGGCACCCGAGAATTCCA 0.942 fold enrichment over input

Dear colleague, I am looking for the recorded binding signal of the following binder: GTGTCTCA (ssRNA, constant regions annealed to DNA blockers; guide miR-122 5' phosphate) RNA 1: GAGUUCUACAGUCCGACGAUCCCAACGUGUCUCACACCUGGAAUUCUCGGGUGCCAA RNA 2: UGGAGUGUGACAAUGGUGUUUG DNA 1: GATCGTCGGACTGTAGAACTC DNA 2: TTGGCACCCGAGAATTCCA 0.387 fold enrichment over input

Dear colleague, I am looking for the recorded binding signal of the following binder: GCATTTTA (ssRNA, constant regions annealed to DNA blockers; guide miR-122 5' phosphate) RNA 1: GAGUUCUACAGUCCGACGAUCCCAACGCAUUUUACACCUGGAAUUCUCGGGUGCCAA RNA 2: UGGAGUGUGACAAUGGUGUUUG DNA 1: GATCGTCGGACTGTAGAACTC DNA 2: TTGGCACCCGAGAATTCCA 0.123 fold enrichment over input

Dear colleague, I am looking for the recorded binding signal of the following binder: GCATTTCA (ssRNA, constant regions annealed to DNA blockers; guide miR-122 5' phosphate) RNA 1: GAGUUCUACAGUCCGACGAUCCCAACGCAUUUCACACCUGGAAUUCUCGGGUGCCAA RNA 2: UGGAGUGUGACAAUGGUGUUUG DNA 1: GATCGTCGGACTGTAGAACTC DNA 2: TTGGCACCCGAGAATTCCA 1.83 fold enrichment over input

Dear colleague, I am looking for the recorded binding signal of the following binder: ATGCTTCA (ssRNA, constant regions annealed to DNA blockers; guide miR-122 5' phosphate) RNA 1: GAGUUCUACAGUCCGACGAUCCCAACAUGCUUCACACCUGGAAUUCUCGGGUGCCAA RNA 2: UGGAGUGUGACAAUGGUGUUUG DNA 1: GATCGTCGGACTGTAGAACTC DNA 2: TTGGCACCCGAGAATTCCA 0.842 fold enrichment over input

Dear colleague, I am looking for the recorded binding signal of the following binder: GCGTCCCA (ssRNA, constant regions annealed to DNA blockers; guide miR-122 5' phosphate) RNA 1: GAGUUCUACAGUCCGACGAUCCCAACGCGUCCCACACCUGGAAUUCUCGGGUGCCAA RNA 2: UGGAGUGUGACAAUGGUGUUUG DNA 1: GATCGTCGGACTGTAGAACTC DNA 2: TTGGCACCCGAGAATTCCA 0.169 fold enrichment over input

Dear colleague, I am looking for the recorded binding signal of the following binder: ATATTCCA (ssRNA, constant regions annealed to DNA blockers; guide miR-122 5' phosphate) RNA 1: GAGUUCUACAGUCCGACGAUCCCAACAUAUUCCACACCUGGAAUUCUCGGGUGCCAA RNA 2: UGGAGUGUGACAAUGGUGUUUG DNA 1: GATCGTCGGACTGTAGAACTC DNA 2: TTGGCACCCGAGAATTCCA 0.372 fold enrichment over input

Dear colleague, I am looking for the recorded binding signal of the following binder: GCGCTTCA (ssRNA, constant regions annealed to DNA blockers; guide miR-122 5' phosphate) RNA 1: GAGUUCUACAGUCCGACGAUCCCAACGCGCUUCACACCUGGAAUUCUCGGGUGCCAA RNA 2: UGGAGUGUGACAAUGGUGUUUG DNA 1: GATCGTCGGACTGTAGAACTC DNA 2: TTGGCACCCGAGAATTCCA 0.289 fold enrichment over input

Dear colleague, I am looking for the recorded binding signal of the following binder: ATGTCTTA (ssRNA, constant regions annealed to DNA blockers; guide miR-122 5' phosphate) RNA 1: GAGUUCUACAGUCCGACGAUCCCAACAUGUCUUACACCUGGAAUUCUCGGGUGCCAA RNA 2: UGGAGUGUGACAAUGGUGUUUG DNA 1: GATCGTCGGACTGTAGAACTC DNA 2: TTGGCACCCGAGAATTCCA 0.57 fold enrichment over input

Dear colleague, I am looking for the recorded binding signal of the following binder: ACGCCTCA (ssRNA, constant regions annealed to DNA blockers; guide miR-122 5' phosphate) RNA 1: GAGUUCUACAGUCCGACGAUCCCAACACGCCUCACACCUGGAAUUCUCGGGUGCCAA RNA 2: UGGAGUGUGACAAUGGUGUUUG DNA 1: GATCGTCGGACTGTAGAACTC DNA 2: TTGGCACCCGAGAATTCCA 0.822 fold enrichment over input
